Cited source: paper PMC10786891

# System Under Test: T1, EsCas13d, nuclease-dead (Eubacterium siraeum, UniProt B0MS50, R295A;H300A;R849A;H854A)
# T1 sequence: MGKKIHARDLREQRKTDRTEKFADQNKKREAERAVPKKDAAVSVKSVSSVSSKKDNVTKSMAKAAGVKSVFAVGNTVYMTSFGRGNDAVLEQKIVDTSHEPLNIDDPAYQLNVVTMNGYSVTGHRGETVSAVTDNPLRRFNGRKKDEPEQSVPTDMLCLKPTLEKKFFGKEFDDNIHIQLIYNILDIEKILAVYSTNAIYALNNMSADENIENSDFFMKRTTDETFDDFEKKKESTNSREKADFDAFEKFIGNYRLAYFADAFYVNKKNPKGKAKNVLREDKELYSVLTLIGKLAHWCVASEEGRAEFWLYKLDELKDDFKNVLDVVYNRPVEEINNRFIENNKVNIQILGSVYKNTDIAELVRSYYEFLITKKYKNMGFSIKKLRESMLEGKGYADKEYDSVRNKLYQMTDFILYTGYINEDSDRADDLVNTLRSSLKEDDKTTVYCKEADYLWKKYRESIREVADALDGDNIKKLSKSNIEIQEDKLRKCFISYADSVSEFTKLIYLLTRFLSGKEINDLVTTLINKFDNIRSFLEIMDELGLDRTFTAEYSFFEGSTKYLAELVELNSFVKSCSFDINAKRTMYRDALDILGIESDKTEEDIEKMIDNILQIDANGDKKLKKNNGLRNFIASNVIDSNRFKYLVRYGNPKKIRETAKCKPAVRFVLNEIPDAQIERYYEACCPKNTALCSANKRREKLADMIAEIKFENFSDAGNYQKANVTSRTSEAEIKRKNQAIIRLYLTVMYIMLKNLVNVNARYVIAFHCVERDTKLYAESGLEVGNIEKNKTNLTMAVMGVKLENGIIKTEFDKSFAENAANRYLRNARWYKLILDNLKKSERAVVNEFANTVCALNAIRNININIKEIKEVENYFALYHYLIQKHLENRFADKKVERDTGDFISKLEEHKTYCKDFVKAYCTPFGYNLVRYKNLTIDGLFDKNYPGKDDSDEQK
# Protocol Text: crRNA (strand 1, pre-loaded); Mg2+; 40 mM Tris-HCl pH 7.5, 150 mM NaCl, 6 mM MgCl2, 1 mM DTT, 0.1% Tween-20, 0.2 mg/ml BSA; 25 C; 10 min per concentration, then washed
# Conditions Used: tags: His6-TwinStrep-SUMO cleaved; N-terminal SNAP kept (SNAP-Surface 488); label: 3' end held by stalled T7 RNA polymerase
# Kd per record follows
Your answer is read as nM, so omit the unit and give the number.

Past entries and their recorded results:
Value of Kd reported for the binder target 1 insA 3' of 22,insU 3' of 14 (mixed) RNA 1: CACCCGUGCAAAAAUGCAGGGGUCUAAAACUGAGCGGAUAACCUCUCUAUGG RNA 2: GGGAAUGGAUCCACAUCUACGAAUUCGUACACAUAGAGAUGGUUAUCCGCUCACCGAGAUCGGAAGAGCACACGU is 41

Value of Kd reported for the binder target 2 MT 5'PFS GAA 3'PFS CGA (mixed) RNA 1: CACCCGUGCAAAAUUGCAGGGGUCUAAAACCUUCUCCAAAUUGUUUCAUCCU RNA 2: GGGAAUGGAUCCACAUCUACGAAUUCGAAAGGAUGAAACAAUUUGGAGAAGCGAAGAUCGGAAGAGCACACGU is 9.2

Value of Kd reported for the binder target 1 C6A,U10C (mixed) RNA 1: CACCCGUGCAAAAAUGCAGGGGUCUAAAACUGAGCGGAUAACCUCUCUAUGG RNA 2: GGGAAUGGAUCCACAUCUACGAAUUCGUACCAUAGAGAGGUCAUCAGCUCACCGAGAUCGGAAGAGCACACGU is 18.8

Next:
Value of Kd reported for the binder target 1 insU 3' of 20,insC 3' of 13 (mixed) RNA 1: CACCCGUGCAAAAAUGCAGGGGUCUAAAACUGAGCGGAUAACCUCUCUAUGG RNA 2: GGGAAUGGAUCCACAUCUACGAAUUCGUACCAUUAGAGAGCGUUAUCCGCUCACCGAGAUCGGAAGAGCACACGU is 28
